# TGT: Von Hippel-Lindau disease tumor suppressor/Elongin B/Elongin C (Homo sapiens, UniProt P40337)
# Sequence (P40337 whole entry, looked up): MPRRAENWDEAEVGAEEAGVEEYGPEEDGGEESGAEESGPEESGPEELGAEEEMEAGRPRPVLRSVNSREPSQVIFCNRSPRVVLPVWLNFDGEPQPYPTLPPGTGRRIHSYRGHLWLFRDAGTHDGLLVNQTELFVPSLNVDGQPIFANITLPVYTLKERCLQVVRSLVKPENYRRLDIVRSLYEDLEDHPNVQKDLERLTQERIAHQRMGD
For each of the compounds below, state its pKd.
For clarity, pKd is expressed as the negative log10 of concentration in mol/L.

I am curious: what pKd value has been reported for CC(=O)C1(C(=O)N[C@H](C(=O)N2C[C@H](O)C[C@H]2C(=O)NCc2ccc(-c3scnc3C)cc2)C(C)(C)C)CC1 ? 6.97

I am curious: what pKd value has been reported for Cc1ncsc1-c1ccc(CNC(=O)[C@@H]2C[C@@H](O)CN2C(=O)[C@@H](NC(=O)C2CC2)C(C)(C)C)cc1 ? 6.88

I am curious: what pKd value has been reported for Cc1ncsc1-c1ccc(CNC(=O)[C@@H]2C[C@@H](O)CN2C(=O)[C@@H](NC(=O)CO)C(C)(C)C)cc1 ? 6.98

I am curious: what pKd value has been reported for Cc1ncsc1-c1ccc(CNC(=O)[C@@H]2C[C@@H](O)CN2C(=O)[C@@H](NC(=O)C2COC2)C(C)(C)C)cc1 ? 6.64

I am curious: what pKd value has been reported for Cc1ncsc1-c1ccc(CNC(=O)[C@@H]2C[C@@H](O)CN2C(=O)[C@@H](NC(=O)C2CCC2)C(C)(C)C)cc1 ? 6.68

I am curious: what pKd value has been reported for CC(=O)NC1(C(=O)N[C@H](C(=O)N2C[C@H](O)C[C@H]2C(=O)NCc2ccc(-c3scnc3C)cc2)C(C)(C)C)CC1 ? 6.86

====

# METHOD: Intrinsic clearance in CD1 mouse liver microsomes at 0.5 uM up to 30 mins by UPLC-MS/MS analysis
# Assay type: ADME, microsome
# MEASUREMENT PARAMETERS: 0.5 h
Cut-off 2 mL/min/g on intrinsic clearance (CLint), inclusive. At or above means condition met; below means condition not met.

Hi team, for Cc1ncsc1-c1ccc(CNC(=O)[C@@H]2C[C@@H](O)CN2C(=O)[C@@H](NC(=O)C2(F)CC2)C(C)(C)C)cc1 , is the recorded intrinsic clearance (CLint) at or above 2 mL/min/g? condition met

Hi team, for CC(=O)C1(C(=O)N[C@H](C(=O)N2C[C@H](O)C[C@H]2C(=O)NCc2ccc(-c3scnc3C)cc2)C(C)(C)C)CC1 , is the recorded intrinsic clearance (CLint) at or above 2 mL/min/g? condition met

Hi team, for Cc1ncsc1-c1ccc(CNC(=O)[C@@H]2C[C@@H](O)CN2C(=O)[C@@H](NC(=O)C2CCC2)C(C)(C)C)cc1 , is the recorded intrinsic clearance (CLint) at or above 2 mL/min/g? condition met

Hi team, for Cc1ncsc1-c1ccc(CNC(=O)[C@@H]2C[C@@H](O)CN2C(=O)[C@@H](NC(=O)C2(C#N)CC2)C(C)(C)C)cc1 , is the recorded intrinsic clearance (CLint) at or above 2 mL/min/g? condition met

Hi team, for CC(=O)N[C@H](C(=O)N1C[C@H](O)C[C@H]1C(=O)NCc1ccc(-c2scnc2C)cc1)C(C)(C)C , is the recorded intrinsic clearance (CLint) at or above 2 mL/min/g? condition not met

====

# TGT: Von Hippel-Lindau disease tumor suppressor/Elongin B/Elongin C (Homo sapiens) (UniProt P40337+Q15370+Q15369)
# Sequence (P40337 whole entry, looked up): as above
# Sequence (Q15369 whole entry, looked up): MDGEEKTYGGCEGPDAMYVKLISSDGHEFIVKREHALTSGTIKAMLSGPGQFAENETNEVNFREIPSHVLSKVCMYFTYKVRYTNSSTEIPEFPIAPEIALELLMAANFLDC
# Sequence (Q15370 whole entry, looked up): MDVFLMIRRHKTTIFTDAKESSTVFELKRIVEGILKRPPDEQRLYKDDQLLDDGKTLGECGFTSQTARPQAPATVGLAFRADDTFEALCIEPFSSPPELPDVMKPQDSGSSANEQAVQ
# METHOD: Inhibition of VBC in human HeLa cells assessed as HIF-1alpha stabilization by measuring HIF-1alpha protein levels at 50 uM after 2 hrs by Western blot analysis
# Type: cell-based
# Parameters: scale not given: the % may be the effect or the level left
# strict inequality: Activity < 30% yields criterion met, everything else yields criterion not met

Criterion: Activity strictly below 30%. Is it met by Cc1ncsc1-c1ccc(CNC(=O)[C@@H]2C[C@@H](O)CN2C(=O)[C@@H](NC(=O)C(C)(C)F)C(C)(C)C)cc1 ? criterion met

Criterion: Activity strictly below 30%. Is it met by Cc1ncsc1-c1ccc(CNC(=O)[C@@H]2C[C@@H](O)CN2C(=O)[C@@H](NC(=O)C2CC(=O)C2)C(C)(C)C)cc1 ? criterion met

Criterion: Activity strictly below 30%. Is it met by Cc1ncsc1-c1ccc(CNC(=O)[C@@H]2C[C@@H](O)CN2C(=O)[C@@H](NC(=O)C2(F)CC2)C(C)(C)C)cc1 ? criterion not met

Criterion: Activity strictly below 30%. Is it met by Cc1ncsc1-c1ccc(CNC(=O)[C@@H]2C[C@@H](O)CN2C(=O)[C@@H](NC(=O)C2COC2)C(C)(C)C)cc1 ? criterion not met

Criterion: Activity strictly below 30%. Is it met by CC(=O)NC1(C(=O)N[C@H](C(=O)N2C[C@H](O)C[C@H]2C(=O)NCc2ccc(-c3scnc3C)cc2)C(C)(C)C)CC1 ? criterion met

Criterion: Activity strictly below 30%. Is it met by Cc1ncsc1-c1ccc(CNC(=O)[C@@H]2C[C@@H](O)CN2C(=O)[C@@H](NC(=O)CO)C(C)(C)C)cc1 ? criterion met

Criterion: Activity strictly below 30%. Is it met by Cc1ncsc1-c1ccc(CNC(=O)[C@@H]2C[C@@H](O)CN2C(=O)[C@@H](N2CCCC2=O)C(C)(C)C)cc1 ? criterion not met

Criterion: Activity strictly below 30%. Is it met by CC(=O)N[C@H](C(=O)N1C[C@H](O)C[C@H]1C(=O)NCc1ccc(-c2scnc2C)cc1)C(C)(C)C ? criterion not met

Criterion: Activity strictly below 30%. Is it met by CC(=O)N(C)[C@H](C(=O)N1C[C@H](O)C[C@H]1C(=O)NCc1ccc(-c2scnc2C)cc1)C(C)(C)C ? criterion met

Criterion: Activity strictly below 30%. Is it met by Cc1ncsc1-c1ccc(CNC(=O)[C@@H]2C[C@@H](O)CN2C(=O)[C@@H](NC(=O)C(Cl)(Cl)Cl)C(C)(C)C)cc1 ? criterion not met
